- TGT: T1, human ALPPL2 (recombinant protein) (human, UniProt P10696 20-503, limits assumed)
- T1 construct: biotinylated where captured on streptavidin
- PROTOCOL NOTES: screen of rabbit B-cell clones by ELISA and FACS
READOUT LABEL: binding result

>>> reading("AB1C15 (antibody, V domains shown, Rabbit antibody cloned from a single B cell) VH: QSLEESGGDLVKPGASLTLTCTASGFSFSSSYYMCWVRQAPGKGLEWIACIYTTYGGTWYASWAKGRFTISKTSSTTVTLQMTSLTDADTATYFCARSSISDVTYFNLWGPGTLVTVSS VL: DIVMTQTPASVEAAVGGTVTIKCQASQSISNYLAWYQQKPGQPPELLIYRASTLESGVPSRFKGSGSGTGFTLTISDLECADAATYYCQSYYDNNNYAFGGGTEVVVK")
"binds"
>>> reading("AB1C21 (antibody, V domains shown, Rabbit antibody cloned from a single B cell) VH: QQQLVESGGGLVKPGASLTLTCKASGFSFSSGYDMCWVRQAPGKGLEWIACIYTGDGSTYYASWARGRFTISKTSSTTVTLQMTSLTAADTATYFCAREDVSSGDYTFNLWGPGTLVTVSS VL: YDMTQTPASVEVTVGGTVTIKCQASEDIYSGLAWYQQKPGQRPKLLIYKASNLASGVPSRFSGSGSGTEFTLTISGVECADAATYYCQQGVTYSNVDNTFGGGTEVVVK")
"binds"
>>> reading("AB1C29 (antibody, V domains shown, Rabbit antibody cloned from a single B cell) VH: QEHLEESGGGLVKPEGSLTLTCTASGFSFSSSYYMCWVRQAPGKGLEWIACIYPDDGNTYYASWAKGRFTISKTSSTTVTLQMTSLTAADTATYFCARALAYYAYVDGGHSYAINDFDLWGPGTLVTVSS VL: QVLTQTPSSVSAAVGGTVTINCQSSQSVFSNDYFSWYQQKPGQPPKLLIYDASRLASGVPSRFKGSGSGTQFTLTISGVQCDDAATYYCQGTYYSSAWYNAFGGGTEVVVK")
"binds"

The origin of these recorded values is patent US20230080224A1.
